In this section we review reported survival enhancement values for a set of compounds.
Experiment: enhancers of single-cell hiPSC survival, primary screen, ATPlite luminescence (AID 602274);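 also: cells exposed to compounds for 16 hours before the ATP read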
Details: at 20 µM, active compounds read high, 100% = ROCK inhibitor wells, 0% = DMSO
The whole screen tested about 360,000 compounds, of which about 160 (0.044%) were called active. The sample holds actives, similar compounds and a random draw of the others, so the mix is not that of the screen.
MEASURED_ENDPOINT: survival enhancement (%)

In [3]: df
Out[3]:
                                    compound  quantitative_readout
 0             CCn1c2c(c3ccc(OC)cc31)CCCC2=O                   0.7
 1  CCN(CC)S(=O)(=O)c1ccc(N2CCCC2)c(NS(=O)(=O)c2cccs2)c1                   0.5
 2       COC(=O)c1ccc(NC(=S)Nc2cccc(C)n2)cc1                   0.3
 3  CCc1nc2ccccc2n(CCOCCOCCn2c(=O)c(CC)nc3ccccc32)c1=O                   2.6
 4  O=C(COC(=O)C1(c2ccc(F)cc2)CCCC1)N1CCNC1=O                   0.5
 5         NNC(=O)c1cnn(-c2ccccc2)c1C(F)(F)F                  -0.5
 6  CC(C)Oc1ccc(S(=O)(=O)N2CCOCC2)cc1NC(=O)C1CSC2(C)CCC(=O)N12 (stereo unspecified)                  -0.5
 7  C1=C(N2CCOCC2)/C(=C/c2nc3ccccc3[nH]2)CC1                   3.5
 8            CCCCSc1nnc2c(n1)OC=Nc1ccccc1-2                     1
 9  COC(=O)C1=NNC2(c3ccc(C)cc3)C(=O)N(c3cccc(C)c3C)C(=O)C12 (stereo unspecified)                   1.4
10   Cc1ccccc1N1CCN(Cc2nc(Cc3ccccc3F)no2)CC1                  -0.1
